Reference source for all entries: patent US20220112288A1

TARGET: T1, human CD4 on cells (SKW3 cells; human PBMCs) (human, UniProt P01730 26-458)
T1 construct: whole, on cells; The SKW3 CD4 knockout cells served as the negative cell line; also called hCD4
RUN DESCRIPTION: FACS binning on SKW3 cells after supernatant; competitor OKT4a, anti-hu A647 secondary; background 5000, max binding 35000
TEST READOUT: OKT4a anti-hu A647 signal (FACS binning)
Write the number on its own, no unit after it.

Problem: Name the reported OKT4a anti-hu A647 signal (FACS binning) value associated with the binder 75110_01H18A (antibody, V domains shown, Tested as non-clonal hybridoma supernatant from AlivaMab Mouse Kappa mice, detected with anti-mouse Fc and anti-human Kappa) VH: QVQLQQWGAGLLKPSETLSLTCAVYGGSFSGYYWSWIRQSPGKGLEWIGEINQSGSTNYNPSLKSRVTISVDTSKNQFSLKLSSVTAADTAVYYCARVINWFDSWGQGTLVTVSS VL: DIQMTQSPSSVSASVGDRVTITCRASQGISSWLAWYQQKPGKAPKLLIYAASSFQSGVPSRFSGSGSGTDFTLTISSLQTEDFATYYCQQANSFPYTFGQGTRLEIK
Solution: 37200
